Target: Cytochrome P450 2C8 (Homo sapiens, UniProt P10632)
Sequence (P10632 whole entry): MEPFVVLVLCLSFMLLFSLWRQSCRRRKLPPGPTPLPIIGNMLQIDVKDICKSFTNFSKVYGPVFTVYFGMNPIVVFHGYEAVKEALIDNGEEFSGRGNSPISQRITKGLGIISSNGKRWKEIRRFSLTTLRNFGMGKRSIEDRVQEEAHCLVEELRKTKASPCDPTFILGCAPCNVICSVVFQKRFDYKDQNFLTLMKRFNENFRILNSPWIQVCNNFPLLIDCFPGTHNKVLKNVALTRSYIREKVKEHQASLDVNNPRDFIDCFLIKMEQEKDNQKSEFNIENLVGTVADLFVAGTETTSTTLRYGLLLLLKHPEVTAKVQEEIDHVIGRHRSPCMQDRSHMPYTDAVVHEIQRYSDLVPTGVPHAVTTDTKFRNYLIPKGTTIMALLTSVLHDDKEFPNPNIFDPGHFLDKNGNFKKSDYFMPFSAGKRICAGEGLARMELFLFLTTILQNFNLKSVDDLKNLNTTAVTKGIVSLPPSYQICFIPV
assay metric: IC50
A bare number is not enough; add the unit after it.

For the molecule "Cc1cc(F)cc(Nc2ncc(Nc3ccc(SC(F)(F)F)cc3)cc2C(N)=O)c1" , give its reported IC50.
6.8 µM

Values from ChEMBL document CHEMBL6074641
